All values here come from patent US20230011869A1.

Listed here are molecules together with their documented IC90.
# System: Acinetobacter baumannii ATCC17961
# PROCEDURE DETAILS: Antimicrobial susceptibility testing: 90% growth inhibitory concentration (IC90) determination, Iso-Sensitest broth
# Type: cell-based
# SETTINGS: Acinetobacter baumannii, ATCC17961, 16 h, 90% growth inhibitory concentration, Acinetobacter baumannii ATCC17961, Iso-Sensitest broth, OD 600 nm over 16 h; read-out: ATCC17961 IC90
Where a name gives a salt, the structure may show the parent alone.
Just the number please, in nM, no unit attached.

Known IC90 results, listed for orientation:
MOLECULE	IC90, nM
COc1ccc(-c2cnc3c(Nc4ccc(C(=O)N5CCNCC5)c(C)c4)nccn23)c(F)c1F	117
COc1ccc(-c2cnc3c(Nc4ccc(C(=O)N5CCN(C(=O)[C@]6(O)C[C@@H](O)[C@@H](O)[C@H](O)C6)CC5)c(C)c4)nccn23)c(F)c1F	171
COc1ccc(-c2cnc3c(Nc4ccc(C(=O)N5CCN(C(=O)C6(C)CCCN6)CC5)c(C)c4)nccn23)c(F)c1F (stereo not drawn) [Example 80, hydrochloride]	81
COc1ccc(-c2cnc3c(Nc4ccc(C(=O)N5CCC(C(=O)NCC(O)CNC(N)=O)CC5)c(C)c4)nccn23)c(F)c1F (stereo not drawn)	195
COc1ccc(-c2cnc3c(Nc4ccc(C(=O)N5CCN(S(=O)(=O)[C@@H]6CCNC6)CC5)c(C)c4)nccn23)c(F)c1F	258

Query string: Please report the recorded IC90 for "CCc1cc(Nc2nccn3c(-c4ccc(OC)c(F)c4F)cnc23)ccc1C(=O)N1CCN(CCO[C@@H]2O[C@H](CO)[C@H](O)[C@H](O)[C@H]2O)CC1" .
Result string: 601
